Assign Papp at 5 h, 200 µM to each entry below.
# Test: in vitro
# Particulars: PAMPA, pH 7.4
API: value field is a number in ×10⁻⁶ cm/s; no unit string.

Reported Papp at 5 h, 200 µM for `Cn1c(=O)c2c(ncn2C)n(C)c1=O` was 12.2

Reported Papp at 5 h, 200 µM for `CCn1cc(C(=O)O)c(=O)c2cc(F)c(N3CCNCC3)cc21` was 0.056

Reported Papp at 5 h, 200 µM for `CC(=O)c1ccc(OCCCCCCN2CCN(c3ccncc3)CC2)cc1.O=C(O)C(=O)O` was 4.35

###

# Test System: H3 histamine receptor (Homo sapiens)
# Construct: host or cells: recombinant frozen ready-to-use cells
# Sequence (Q9Y5N1 whole entry): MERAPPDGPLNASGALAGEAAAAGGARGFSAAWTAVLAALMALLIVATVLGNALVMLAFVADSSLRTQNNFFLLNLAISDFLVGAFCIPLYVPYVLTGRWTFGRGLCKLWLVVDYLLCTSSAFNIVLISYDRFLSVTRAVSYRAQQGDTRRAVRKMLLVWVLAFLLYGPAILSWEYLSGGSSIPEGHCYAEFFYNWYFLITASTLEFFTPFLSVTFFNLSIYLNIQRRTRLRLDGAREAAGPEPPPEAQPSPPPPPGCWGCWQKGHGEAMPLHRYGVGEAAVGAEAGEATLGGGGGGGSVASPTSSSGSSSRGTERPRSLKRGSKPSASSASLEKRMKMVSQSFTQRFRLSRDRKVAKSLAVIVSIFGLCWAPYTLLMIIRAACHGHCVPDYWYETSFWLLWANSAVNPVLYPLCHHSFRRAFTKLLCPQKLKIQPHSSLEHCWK
# Test: Lance cAMP intrinsic activity assay (antagonist dose-response)
# Format: cell-based
# Particulars: text summary over both methods (Lance cAMP and Aequoscreen); read-out: IC50 value
pIC50: −log10 of the molar value.
Readout Kind: pIC50

Reported pIC50 for `CC(=O)c1ccc(OCCCCCCN2CCN(c3ccncc3)CC2)cc1.O=C(O)C(=O)O` was ~8.52

Reported pIC50 for `CC(=O)c1ccc(OCCCCCCCCN2CCN(c3ccncc3)CC2)cc1.O=C(O)C(=O)O` was 7.70 to 8.00

###

# Test System: H3 histamine receptor (Homo sapiens)
# Construct: host or cells: recombinant frozen ready-to-use cells
# Test: Aequoscreen intrinsic activity assay (antagonist dose-response)
# Format: cell-based
Assign pIC50 to each entry below.
Please treat pIC50 as minus the base-10 logarithm of the molar concentration.

Lab note: compound CC(=O)c1ccc(OCCCCCCCCN2CCN(c3ccncc3)CC2)cc1.O=C(O)C(=O)O [KSK-73] tested on H3 histamine receptor (Homo sapiens); recorded pIC50 was 7.69

Lab note: compound CC(=O)c1ccc(OCCCCCCN2CCN(c3ccncc3)CC2)cc1.O=C(O)C(=O)O [KSK-59] tested on H3 histamine receptor (Homo sapiens); recorded pIC50 was 8.48

###

Assign Tmax to each entry below.
# Test: Pharmacokinetics after single i.p. administration
# Format: in vivo
# Particulars: ip; rat plasma, single i.p. 10 mg/kg, n = 3
API: value field is a number in min; no unit string.

Reported Tmax for CC(=O)c1ccc(OCCCCCCCCN2CCN(c3ccncc3)CC2)cc1.O=C(O)C(=O)O [KSK-73] was 4.98

Reported Tmax for CC(=O)c1ccc(OCCCCCCN2CCN(c3ccncc3)CC2)cc1.O=C(O)C(=O)O [KSK-59] was 4.98

###

Assign Cmax to each entry below.
# Test: Pharmacokinetics after single i.p. administration
# Type: in vivo
# Particulars: ip; rat plasma, single i.p. 10 mg/kg, n = 3
API: value field is a number in ng/mL; no unit string.

Reported Cmax for `CC(=O)c1ccc(OCCCCCCN2CCN(c3ccncc3)CC2)cc1.O=C(O)C(=O)O` was 96

Reported Cmax for `CC(=O)c1ccc(OCCCCCCCCN2CCN(c3ccncc3)CC2)cc1.O=C(O)C(=O)O` was 216

###

# Test: Pharmacokinetics after single i.p. administration
# Type: in vivo
# Particulars: ip; rat plasma, single i.p. 10 mg/kg, n = 3; read-out: λz (terminal elimination rate constant) (converted)
Readout Kind: k el (s⁻¹)
API: value field is a number in s⁻¹; no unit string.

Reported k el for CC(=O)c1ccc(OCCCCCCN2CCN(c3ccncc3)CC2)cc1.O=C(O)C(=O)O [KSK-59] was 0.000122

Reported k el for CC(=O)c1ccc(OCCCCCCCCN2CCN(c3ccncc3)CC2)cc1.O=C(O)C(=O)O [KSK-73] was 5.28e-05

###

# Test: Pharmacokinetics after single i.p. administration
# Assay type: in vivo
# Particulars: ip; rat plasma, single i.p. 10 mg/kg, n = 3; read-out: MRT (mean residence time)
Readout Kind: MRT (h)
API: value field is a number in h; no unit string.

Reported MRT for `CC(=O)c1ccc(OCCCCCCCCN2CCN(c3ccncc3)CC2)cc1.O=C(O)C(=O)O` was 4.2

Reported MRT for `CC(=O)c1ccc(OCCCCCCN2CCN(c3ccncc3)CC2)cc1.O=C(O)C(=O)O` was 2.04

###

Assign CL/F to each entry below.
# Test: Pharmacokinetics after single i.p. administration
# Format: in vivo
# Particulars: ip; rat plasma, single i.p. 10 mg/kg, n = 3; read-out: CLS/F (clearance) (converted)
Output should be the measured figure followed by the unit it is expressed in.

Reported CL/F for `CC(=O)c1ccc(OCCCCCCCCN2CCN(c3ccncc3)CC2)cc1.O=C(O)C(=O)O` was 40.5 L/h/kg

Reported CL/F for `CC(=O)c1ccc(OCCCCCCN2CCN(c3ccncc3)CC2)cc1.O=C(O)C(=O)O` was 66.9 L/h/kg
